# target_under_test: T1, EGFRvIII target antigen (SPR ligand) (UniProt P00533 25-645, limits assumed)
# T1 construct: also called EGFRvIII antigen
# assay_details: SPR; antibody as analyte

binder	kon, M⁻¹ s⁻¹
humanized antibody 28-H9 (84C3G8H7-VH4 + VL1(PTM)) (scFv, the format in the SPR assay is not clearly stated) scFv: QVQLVQSGAEVKKPGASVKVSCKASGFNIKDYYMHWVKQAPGQRLEWIGWIDPENGNTIYDPKFQGRATITADTSANTAYMELSSLRSEDTAVYYCARGWFAYWGQGTLVTVSSGGGGSGGGGSGGGGSGGGGSDIVMTQSPDSLAVSLGERATINCKSSQSLLNSSNQKNHLAWYQQKPGQPPKLLIYFASTRGSGVPDRFSGSGSGTDFTLTISSLQAEDVAVYYCQQHYSTPLTFGGGTKLELK	140000
humanized antibody 28-H4 (84C3G8H7-VH3 + VL2) (scFv, the format in the SPR assay is not clearly stated) scFv: QVQLVQSGAEVKKPGASVKVSCKASGFNIKDYYMHWVRQAPGQRLEWIGWIDPENGNTIYDPKFQGRATITADTSASTAYMELSSLRSEDTAVYYCARGWFAYWGQGTLVTVSSGGGGSGGGGSGGGGSGGGGSDIVMTQSPDSLAVSLGERATINCKSSQSLLNSSNQKNHLAWYQQKPGQPPKLLVYFASTRASGVPDRFSGSGSGTDFTLTISSLQAEDVAVYFCQQHYSTPLTFGGGTKLELK	134000

The reported measurements were obtained from patent US20260108607A1.
